System: MDA-MB-435
Experiment: NCI tumour cell line growth inhibition, 48 h
QUANTITY_KIND: TGI (µM)
The answer is to be given in µM; state only the numeric part.

Known TGI results, listed for orientation:
COMPOUND	EXPERIMENTAL_TARGET	TGI [µM]
CC(=O)OC1CC2C3CCC4C[C@@H](NC(=O)C=C(C)C)CC[C@]4(C)C3CC[C@]2(C)[C@H]1C(C)N(C)C (stereo not given in full)	MDA-MB-435	4.82
O=C(NCCNCCCNC(=O)c1cc(-c2ccccc2)nc2ccccc12)c1cccc(OCc2ccccc2)c1OCc1ccccc1	MDA-MB-435	3.04
COc1ccc2cc(-c3nc(N)nc(N4N=C(C)CC4(C)C)n3)c(=N)oc2c1	MDA-MB-435	42.1

Exercise: Look at this compound and give its reported TGI. NC(N)=N/N=C/c1ccc(-c2ccc(-c3cc(Cl)cc(Cl)c3)s2)cc1
Solution: 3.28

Exercise: Reported TGI for CCCCCCCCC(=O)OCC(CS[As](C)C)OC(=O)CCCCCCCC (stereo not given) : what is it?
Solution: 0.652

Exercise: Returns the measured TGI for the input compound. Input: Clc1ccc(-c2cc(-c3ccccc3)nc(NCCNc3ccnc4cc(Cl)ccc34)n2)cc1
Solution: 3.27

Exercise: Suppose we examine the compound CCOC(=O)c1[nH]cc(C)c1-c1ccc2c(-c3ccccc3)nc3ccccc3n12 ; what TGI value has been reported?
Solution: 11.2

----------
Tested on: HL-60(TB) leukemia
Experiment: NCI tumour cell line growth inhibition, 48 h
QUANTITY_KIND: TGI (µM)
Reply numerically in µM, unit not repeated.

Worked examples, 6 compounds total:
                                   compound  unit_abbrev  endpoint_value
0  CC(C)Cc1cc2c(cc1O)CCC1C2CC[C@@]2(C)C1CC[C@@H]2O (stereo partly specified)           µM               8
1  O=C(c1ccco1)c1c(C(F)(F)F)n([O-])c2ccc(Cl)cc2[n+]1=O           µM            6.33
2  O=C(/C(=C\c1ccc(Cl)cc1)c1ccccc1)c1ccccc1           µM            36.3
3                           O=c1ssc(Cl)c1Cl           µM            6.04
4        Cc1nnc(N)nc1/C=C/c1c(O)ccc2ccccc12           µM            71.4
5  COC(=O)C(C/C=C(\C)c1ccc(Cl)cc1)C(C)=O (stereo unspecified)           µM            38.3

Exercise: What TGI value was documented for this compound, CC1(C)[C@@H](OC(=O)CCC(=O)O)CC[C@]2(C)[C@H]3C(=O)C=C4[C@@H]5C[C@@](C)(C(=O)O)CC[C@]5(C)CC[C@@]4(C)[C@]3(C)CC[C@@H]12 ?
Solution: 73.6

----------
Below, each entry is listed with its recorded GI50.
System: SF-268 CNS
Test: NCI tumour cell line growth inhibition, 48 h

                                   molecule  experimental_target  endpoint_value
0  Cn1c(=O)c(Oc2ccc(F)cc2F)cc2cnc(NC3CCS(=O)(=O)CC3)nc21           SF-268 CNS       > 18.9 µM
1  COc1ccc2nc3cc(Cl)ccc3c(Sc3ccc([N+](=O)[O-])cc3)c2c1           SF-268 CNS        > 100 µM
2  CCCCCCCCC(=O)OCC(CS[As](C)C)OC(=O)CCCCCCCC (centres undefined)           SF-268 CNS         3.53 µM

Exercise: What value of GI50 on SF-268 CNS does Cn1c(NCC(O)CN2CCCC2)cc(=O)n(C)c1=O (centres undefined) have?
Solution: > 100 µM

Values compiled from PubChem BioAssay (NCI).
